Tested on: MDA-MB-231 multicell spheroids, viability
Assay remarks: Anticancer human tumor MDA-MB-231 cell line growth inhibition [PI3K]
Test settings: second compound 0.316 µM; first compound 0.1 µM; active compounds read low
Reported endpoint: viability, T/C (%)

Cn1nccc1Nc1nccc(-c2ccn(C(CO)c3ccc(Cl)c(F)c3)c(=O)c2)n1 (stereo not drawn) + Cc1nc(NC(=O)N2CCCC2C(N)=O)sc1-c1ccnc(C(C)(C)C(F)(F)F)c1 : 49.5
CCN1CCN(Cc2ccc(Nc3ncc(F)c(-c4cc(F)c5nc(C)n(C(C)C)c5c4)n3)nc2)CC1 + CC(Nc1ncnc2nc[nH]c12)c1cc2cccc(Cl)c2c(=O)n1-c1ccccc1 : 56.8
CC1(C)CCC(Nc2ncc(C(F)(F)F)c(-c3c[nH]c4c(P(C)(C)=O)c(C#N)ccc34)n2)CN1 (stereo not drawn) + COc1c(OCCCN2CCOCC2)ccc2c3n(c(=NC(=O)c4cnc(N)nc4)nc12)CCN3 : 23.2

* * *

Test system: MDA-MB-231 multicell spheroids, viability
Assay remarks: Anticancer human tumor MDA-MB-231 cell line growth inhibition [PI3K]
Test settings: second compound 0.1 µM; first compound 10 µM; active compounds read low
Listed here are compounds together with their documented viability, T/C.
Reported endpoint: viability, T/C (%)

C=CC(=O)N1CCN(c2nc(=O)n(-c3c(C)ccnc3C(C)C)c3nc(-c4c(O)cccc4F)c(F)cc23)C(C)C1 (stereo not given) + CC(Nc1ncnc2nc[nH]c12)c1cc2cccc(Cl)c2c(=O)n1-c1ccccc1 : 118
Cn1nccc1Nc1nccc(-c2ccn(C(CO)c3ccc(Cl)c(F)c3)c(=O)c2)n1 (stereo not given) + Cc1nc(NC(=O)N2CCCC2C(N)=O)sc1-c1ccnc(C(C)(C)C(F)(F)F)c1 : 22.4
CC(Cn1ccc(-c2ccc(C#N)c(Cl)c2)n1)NC(=O)c1cc(C(C)O)[nH]n1 (stereo not given) + Cc1nc(NC(=O)N2CCCC2C(N)=O)sc1-c1ccnc(C(C)(C)C(F)(F)F)c1 : 74.5
C#Cc1c(F)ccc2cc(O)cc(-c3ncc4c(N5CC6CCC(C5)N6)nc(OCC56CCCN5CC(F)C6)nc4c3F)c12 (stereo not given) + COc1c(OCCCN2CCOCC2)ccc2c3n(c(=NC(=O)c4cnc(N)nc4)nc12)CCN3 : 21.5
C[C@@H](NC(=O)c1ncnc(N)c1Cl)c1ncc(C(=O)Nc2cc(C(F)(F)F)c(Cl)cn2)s1 + Cc1nc(NC(=O)N2CCCC2C(N)=O)sc1-c1ccnc(C(C)(C)C(F)(F)F)c1 : 41.3

* * *

Listed here are molecules together with their documented viability, T/C.
System: MDA-MB-231 multicell spheroids, viability
Assay remarks: Anticancer human tumor MDA-MB-231 cell line growth inhibition [PI3K];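 also: spheroids exposed to agents for seven days before reading; percent of vehicle control luminescence with DMSO treated spheroids as 100%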
Test settings: second compound 0.01 µM; first compound 10 µM; active compounds read low
Text: Combinatorial screen of targeted agents with the PI3K inhibitors inavolisib, alpelisib, duvelisib, and copanlisib in multi-cell type tumor spheroids A high-throughput screen of multi-cell type tumor spheroids was designed to identify active combinations of targeted small molecules and PI3K pathway inhibitors. […] Compounds. […] If the clinical Cmax for an agent had not been determined, the highest concentration tested was 10 microM. […]
Reported endpoint: viability, T/C (%)

C=CC(=O)N1CCN(c2nc(=O)n(-c3c(C)ccnc3C(C)C)c3nc(-c4c(O)cccc4F)c(F)cc23)C(C)C1 (stereo not drawn) + COc1c(OCCCN2CCOCC2)ccc2c3n(c(=NC(=O)c4cnc(N)nc4)nc12)CCN3 : 85.8
CC1(C)CCC(Nc2ncc(C(F)(F)F)c(-c3c[nH]c4c(P(C)(C)=O)c(C#N)ccc34)n2)CN1 (stereo not drawn) + CC(Nc1ccc2c(c1)OCCn1cc(N3C(=O)OCC3C(F)F)nc1-2)C(N)=O : 3.26
CC(Cn1ccc(-c2ccc(C#N)c(Cl)c2)n1)NC(=O)c1cc(C(C)O)[nH]n1 (stereo not drawn) + COc1c(OCCCN2CCOCC2)ccc2c3n(c(=NC(=O)c4cnc(N)nc4)nc12)CCN3 : 67.9

* * *

System: MDA-MB-231 multicell spheroids, viability
Assay remarks: Anticancer human tumor MDA-MB-231 cell line growth inhibition [PI3K];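 also: spheroids exposed to agents for seven days before reading; percent of vehicle control luminescence with DMSO treated spheroids as 100%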
Test settings: second compound 0.1 µM; first compound 0.01 µM; active compounds read low
From the text: Combinatorial screen of targeted agents with the PI3K inhibitors inavolisib, alpelisib, duvelisib, and copanlisib in multi-cell type tumor spheroids A high-throughput screen of multi-cell type tumor spheroids was designed to identify active combinations of targeted small molecules and PI3K pathway inhibitors. […] Compounds. […] If the clinical Cmax for an agent had not been determined, the highest concentration tested was 10 microM. […]
Reported endpoint: viability, T/C (%)

Cn1ncnc1[C@H]1c2n[nH]c(=O)c3cc(F)cc(c23)N[C@@H]1c1ccc(F)cc1 + CC(Nc1ncnc2nc[nH]c12)c1cc2cccc(Cl)c2c(=O)n1-c1ccccc1 : 94
CCN1CCN(Cc2ccc(Nc3ncc(F)c(-c4cc(F)c5nc(C)n(C(C)C)c5c4)n3)nc2)CC1 + Cc1nc(NC(=O)N2CCCC2C(N)=O)sc1-c1ccnc(C(C)(C)C(F)(F)F)c1 : 74.1
CC(=O)c1c(C)c2cnc(Nc3ccc(N4CCNCC4)cn3)nc2n(C2CCCC2)c1=O + CC(Nc1ncnc2nc[nH]c12)c1cc2cccc(Cl)c2c(=O)n1-c1ccccc1 : 80.5
Cn1ncnc1[C@H]1c2n[nH]c(=O)c3cc(F)cc(c23)N[C@@H]1c1ccc(F)cc1 + CC(Nc1ccc2c(c1)OCCn1cc(N3C(=O)OCC3C(F)F)nc1-2)C(N)=O : 62.4
CCN1CCN(Cc2ccc(Nc3ncc(F)c(-c4cc(F)c5nc(C)n(C(C)C)c5c4)n3)nc2)CC1 + CC(Nc1ccc2c(c1)OCCn1cc(N3C(=O)OCC3C(F)F)nc1-2)C(N)=O : 70.4
Cn1ncnc1[C@H]1c2n[nH]c(=O)c3cc(F)cc(c23)N[C@@H]1c1ccc(F)cc1 + COc1c(OCCCN2CCOCC2)ccc2c3n(c(=NC(=O)c4cnc(N)nc4)nc12)CCN3 : 43.7
CCN1CCN(Cc2ccc(Nc3ncc(F)c(-c4cc(F)c5nc(C)n(C(C)C)c5c4)n3)nc2)CC1 + COc1c(OCCCN2CCOCC2)ccc2c3n(c(=NC(=O)c4cnc(N)nc4)nc12)CCN3 : 40
CC(=O)c1c(C)c2cnc(Nc3ccc(N4CCNCC4)cn3)nc2n(C2CCCC2)c1=O + CC(Nc1ccc2c(c1)OCCn1cc(N3C(=O)OCC3C(F)F)nc1-2)C(N)=O : 55.2
CC(C)n1nc(-c2ccc3oc(N)nc3c2)c2c(N)ncnc21 + CC(Nc1ncnc2nc[nH]c12)c1cc2cccc(Cl)c2c(=O)n1-c1ccccc1 : 79.7
CC(C)n1nc(-c2ccc3oc(N)nc3c2)c2c(N)ncnc21 + Cc1nc(NC(=O)N2CCCC2C(N)=O)sc1-c1ccnc(C(C)(C)C(F)(F)F)c1 : 65.2
CC(=O)c1c(C)c2cnc(Nc3ccc(N4CCNCC4)cn3)nc2n(C2CCCC2)c1=O + COc1c(OCCCN2CCOCC2)ccc2c3n(c(=NC(=O)c4cnc(N)nc4)nc12)CCN3 : 39.2

* * *

Tested on: MDA-MB-231 multicell spheroids, viability
Assay remarks: Anticancer human tumor MDA-MB-231 cell line growth inhibition [PI3K];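 also: spheroids exposed to agents for seven days before reading; percent of vehicle control luminescence with DMSO treated spheroids as 100%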
Test settings: second compound 0.1 µM; first compound 0.1 µM; active compounds read low
Reported endpoint: viability, T/C (%)

C#Cc1c(F)ccc2cc(O)cc(-c3ncc4c(N5CC6CCC(C5)N6)nc(OCC56CCCN5CC(F)C6)nc4c3F)c12 (stereo not drawn) + COc1c(OCCCN2CCOCC2)ccc2c3n(c(=NC(=O)c4cnc(N)nc4)nc12)CCN3 : 46.7
CNC(=O)c1ccc(N2C(=S)N(c3ccc(C#N)c(C(F)(F)F)c3)C(=O)C2(C)C)cc1F + CC(Nc1ncnc2nc[nH]c12)c1cc2cccc(Cl)c2c(=O)n1-c1ccccc1 : 96
CC(C)n1nc(-c2ccc3oc(N)nc3c2)c2c(N)ncnc21 + COc1c(OCCCN2CCOCC2)ccc2c3n(c(=NC(=O)c4cnc(N)nc4)nc12)CCN3 : 19.8

* * *

Test system: MDA-MB-231 multicell spheroids, viability
Assay remarks: Anticancer human tumor MDA-MB-231 cell line growth inhibition [PI3K];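 also: spheroids exposed to agents for seven days before reading; percent of vehicle control luminescence with DMSO treated spheroids as 100%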
Test settings: second compound 0.316 µM; first compound 1 µM; active compounds read low
Reported endpoint: viability, T/C

CNC(=O)c1ccc(N2C(=S)N(c3ccc(C#N)c(C(F)(F)F)c3)C(=O)C2(C)C)cc1F + CC(Nc1ccc2c(c1)OCCn1cc(N3C(=O)OCC3C(F)F)nc1-2)C(N)=O : 66.7%
Cn1ncc(Cl)c1-c1cc(C(=O)NC(CN)Cc2cccc(F)c2)sc1Cl (stereo unspecified) + CC(Nc1ncnc2nc[nH]c12)c1cc2cccc(Cl)c2c(=O)n1-c1ccccc1 : 65.2%
Cn1nccc1Nc1nccc(-c2ccn(C(CO)c3ccc(Cl)c(F)c3)c(=O)c2)n1 (stereo unspecified) + Cc1nc(NC(=O)N2CCCC2C(N)=O)sc1-c1ccnc(C(C)(C)C(F)(F)F)c1 : 37.6%
CC(C)NCC(C(=O)N1CCN(c2ncnc3c2C(C)CC3O)CC1)c1ccc(Cl)cc1 (stereo unspecified) + CC(Nc1ccc2c(c1)OCCn1cc(N3C(=O)OCC3C(F)F)nc1-2)C(N)=O : 61.6%
C[C@@H](NC(=O)c1ncnc(N)c1Cl)c1ncc(C(=O)Nc2cc(C(F)(F)F)c(Cl)cn2)s1 + Cc1nc(NC(=O)N2CCCC2C(N)=O)sc1-c1ccnc(C(C)(C)C(F)(F)F)c1 : 50.2%
Cn1ncc(Cl)c1-c1cc(C(=O)NC(CN)Cc2cccc(F)c2)sc1Cl (stereo unspecified) + Cc1nc(NC(=O)N2CCCC2C(N)=O)sc1-c1ccnc(C(C)(C)C(F)(F)F)c1 : 64.8%
